Molecular target: KRAS WT/SOS1 (Homo sapiens)
Sequence (Q07889 1-1333): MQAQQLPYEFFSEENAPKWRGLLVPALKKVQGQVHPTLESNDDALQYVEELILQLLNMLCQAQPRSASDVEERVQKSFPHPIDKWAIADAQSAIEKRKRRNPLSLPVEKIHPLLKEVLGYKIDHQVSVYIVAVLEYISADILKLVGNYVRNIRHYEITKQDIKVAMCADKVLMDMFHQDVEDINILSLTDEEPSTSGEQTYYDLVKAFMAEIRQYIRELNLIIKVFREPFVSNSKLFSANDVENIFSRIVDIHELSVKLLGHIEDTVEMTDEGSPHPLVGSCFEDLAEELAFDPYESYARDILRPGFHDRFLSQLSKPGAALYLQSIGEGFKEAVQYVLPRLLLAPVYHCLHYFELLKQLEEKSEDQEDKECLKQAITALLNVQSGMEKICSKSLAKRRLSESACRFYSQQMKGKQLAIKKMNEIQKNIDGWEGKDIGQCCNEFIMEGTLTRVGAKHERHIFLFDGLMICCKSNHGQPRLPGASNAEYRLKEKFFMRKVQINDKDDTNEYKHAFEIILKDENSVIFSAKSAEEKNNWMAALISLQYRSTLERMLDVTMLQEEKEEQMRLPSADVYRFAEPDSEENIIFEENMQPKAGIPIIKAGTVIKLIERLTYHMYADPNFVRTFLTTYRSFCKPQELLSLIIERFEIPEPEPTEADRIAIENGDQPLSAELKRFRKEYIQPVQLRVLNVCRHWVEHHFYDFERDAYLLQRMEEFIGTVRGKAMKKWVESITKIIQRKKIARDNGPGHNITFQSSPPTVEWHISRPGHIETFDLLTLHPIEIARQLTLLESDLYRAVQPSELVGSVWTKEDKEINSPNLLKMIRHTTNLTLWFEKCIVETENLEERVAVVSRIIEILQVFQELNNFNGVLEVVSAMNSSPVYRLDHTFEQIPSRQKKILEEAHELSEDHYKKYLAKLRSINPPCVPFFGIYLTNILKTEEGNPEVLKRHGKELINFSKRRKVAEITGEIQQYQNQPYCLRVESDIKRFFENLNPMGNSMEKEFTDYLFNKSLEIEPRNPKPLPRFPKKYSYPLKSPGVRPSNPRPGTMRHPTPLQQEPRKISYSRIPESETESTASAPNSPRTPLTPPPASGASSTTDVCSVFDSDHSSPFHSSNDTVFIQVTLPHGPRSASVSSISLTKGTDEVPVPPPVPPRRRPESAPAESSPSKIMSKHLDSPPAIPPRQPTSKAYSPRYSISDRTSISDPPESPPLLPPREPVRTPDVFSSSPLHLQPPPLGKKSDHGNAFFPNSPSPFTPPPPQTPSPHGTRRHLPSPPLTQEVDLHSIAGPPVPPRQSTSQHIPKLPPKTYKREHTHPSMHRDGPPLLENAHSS
Test: HTRF KRAS WT/SOS1 PPI kit (Cisbio) screen for SOS1 inhibitors
Details: 10-point 1/2-log dilution from 10 μM, 60 minutes at room temperature
pIC50: −log10 of the molar value.
MEASUREMENT LABEL: pIC50

Lookup: I am curious: what pIC50 value has been reported for Cc1nc(N[C@H](C)c2cccc(C(F)F)c2F)c2cc(S(=O)(=O)N3CC4CC(C3)O4)ncc2n1 [Example 18] ?
Found: > 7.00
